system: HT-29 cells; assay: Inhibition test for sphere-forming ability of cancer cells (Test Example 1), HT-29; format: cell-based, human; conditions: 1 μmol/L, value with %
readout: (100%-inhibition rate of cell proliferation) at 1 μmol/L, HT-29 (%)
Give just the number in %; leave the unit off.

Solved entries:
COc1ccc(C(=O)Nc2cn(Cc3cccc(C(F)(F)F)c3)cn2)cc1OC [Example 165] | 28.0
O=C(Nc1cn(Cc2cccc(Cl)c2)cn1)c1ccc(OCc2ccccc2)cc1 [Example 197] | 39.0
COc1ccc(C(=O)Nc2cn(Cc3ccc(C)c(Cl)c3)cn2)cc1OC [Example 295] | 37.8
COc1ccc(C(=O)Nc2cn(Cc3cccc(C)c3)cn2)cc1OC [Example 291] | 37.1
COc1ccc(C(=O)Nc2cn(Cc3ccc(C(F)(F)F)cc3)cn2)cc1OC [Example 287] | 124
COc1ccc(C(=O)Nc2cn(Cc3cccc(OC(F)(F)F)c3)cn2)cc1OC [Example 166] | 33.0

Given the compound COc1ccc(C(=O)Nc2cn(Cc3cc(Cl)nc(Cl)c3)cn2)cc1OC [Example 170] , what is its reported (100%-inhibition rate of cell proliferation) at 1 μmol/L, HT-29?
24.9

Queued: COc1ccc(C(=O)Nc2cn(Cc3cccc(OCc4ccccc4)c3)cn2)cc1OC [Example 169]
35.4

Now this one: Cc1ccc(C(=O)Nc2cn(Cc3cccc(Cl)c3)cn2)cn1 [Example 198]
99.8

Same lookup for COc1ccc(C(=O)Nc2cn(Cc3ccc(C(C)C)cc3)cn2)cc1OC [Example 168] , please.
8.6
